- SYSTEM NAME: Glutamate NMDA receptor; Grin1/Grin2c (Rattus norvegicus) (UniProt P35439+Q00961)
- EXPERIMENT SUMMARY: Positive allosteric modulation of recombinant rat GluN1/GluN2C receptor expressed in xenopus laevis oocyte assessed as potentiation of glutamate and glycine-induced current response at 30 uM at holding potential -40mV by two electrode voltage clamp method relative to control
MEASURE NAME: Emax (%)

a. COc1cccc(OCC2c3ccc(OC(C)C)cc3CCN2C(=O)c2cccc(Cl)c2)c1 (centres undefined)
b. COc1ccc(OC[C@H]2c3ccc(OC(C)C)cc3CCN2C(=O)c2cccc(Cl)c2)cc1
Problem: Which is greater in Emax, the first item a or the second item b ? When you have decided, please share the label of that item.
Solution: b
(b: 252%, a: 132%)

A. COc1ccc(OCC2c3ccc(OC(C)C)cc3CCN2C(=O)c2cccc([N+](=O)[O-])c2)cc1 (centres undefined)
B. CC(C)Oc1ccc(OCC2c3ccc(OC(C)C)cc3CCN2C(=S)c2cccc(C(F)(F)F)c2)cc1 (centres undefined)
Problem: Which is greater in Emax, the first item A or the second item B ? When you have decided, please share the label of that item.
Solution: A

a. COc1ccc(OCC2c3ccc(N4CCOCC4)cc3CCN2C(=O)c2cccc(Cl)c2)cc1 (centres undefined)
b. CC(C)Oc1ccc(OCC2c3ccc(OC(C)C)cc3CCN2C(=O)c2cccc(Cl)c2)cc1 (centres undefined)
Problem: Looking only at measured Emax, which entry is lower, a or b ? When you have decided, please share the label of that item.
Solution: b

A. CCOc1ccc(OCC2c3ccc(OCC(C)C)cc3CCN2C(=O)c2cccc(Cl)c2)cc1 (centres undefined)
B. CCOc1ccc(OCC2c3ccc(OC(C)C)cc3CCN2C(=S)c2cccc(Br)c2)cc1 (centres undefined)
Problem: Looking only at measured Emax, which entry is lower, A or B ? When you have decided, please share the label of that item.
Solution: B
(B: 166%, A: 242%)

Taken from ChEMBL document CHEMBL4011622.
